# METHOD SUMMARY: Half life in human liver microsomes at 100 uM preincubated for 10 mins followed by NADPH addition and measured after 60 mins by LC-MS/MS analysis
MEASURED PROPERTY: half-life at 1 h, 100 µM

>>> print(df.to_string())
                                smiles_text         measured_property     result
0  COc1cc2c(N3CCN(C4CCCC4)CC3)nc(NCc3ccc(F)cc3)nc2cc1OCCCN1CCCC1  half-life at 1 h, 100 µM   7.26 min
1  COc1cc2c(N3CCN(Cc4ccccc4)CC3)nc(N(C)C)nc2cc1OCCCN1CCCC1  half-life at 1 h, 100 µM   29.3 min
2  COc1cc2c(N3CCN(C4CCCC4)CC3)nc(NCCCN3CCN(C)CC3)nc2cc1OCCCN1CCCC1  half-life at 1 h, 100 µM   38.4 min
3  COc1cc2c(N3CCNCC3)nc(N(C)C)nc2cc1OCCCN1CCCC1  half-life at 1 h, 100 µM  > 120 min
4  COc1cc2c(N3CCN(C)CC3)nc(N(C)C)nc2cc1OC1CCCC1  half-life at 1 h, 100 µM   24.9 min
5  COc1cc2c(N3CCN(C(=O)c4ccccc4)CC3)nc(N(C)C)nc2cc1OCCCN1CCCC1  half-life at 1 h, 100 µM   46.9 min
6  COc1cc2c(N3CCN(CC4CCCC4)CC3)nc(N(C)C)nc2cc1OCCCN1CCCC1  half-life at 1 h, 100 µM   53.6 min
7  COc1cc2c(N3CCN(C(=O)c4ccc(F)cc4)CC3)nc(N(C)C)nc2cc1OCCCN1CCCC1  half-life at 1 h, 100 µM   55.8 min
8  COc1cc2c(N3CCN(C)CC3)nc(N(C)C)nc2cc1OCCCN1CCCC1  half-life at 1 h, 100 µM  > 120 min
9  COc1cc2c(N3CCN(C4CCCC4)CC3)nc(N(C)C)nc2cc1OCCCN1CCCC1  half-life at 1 h, 100 µM   14.3 min
